Reported Fold Induction, 27-63 Assay, 3.3 uM values for the following molecules.
Molecular target: GAL4 DBD (1-147)-CfEcR(DEF)/VP16AD-βRXREF-LmUSPEF (Choristoneura fumiferana, UniProt O77240)
Assay: cell-based
Conditions: 3.3 uM ligand; RLU ligand treated / RLU DMSO treated cells; average of two wells

# molecule, Fold Induction, 27-63 Assay, 3.3 uM
records = [
    ("Cc1cc(C)cc(C(=O)N(NC(=O)c2ccc(CC#N)cc2)C(C)(C)C)c1", 34),
    ("COc1ccc(C)cc1C(=O)N(NC(=O)c1cccc(OC)c1C)C(C)(C)C", 931),
    ("Cc1c(C(=O)NN(C(=O)c2ccc(F)cc2)C(C)(C)C)ccc2c1CCCO2", 1063),
    ("CCCCC(N(NC(=O)c1ccc(CC)cc1)C(=O)c1cc(OC)c(C)c(OC)c1)C(C)(C)C (stereo not drawn)", 1407),
    ("COc1cccc(C(=O)NN(C(=O)c2cc(C)cc(C)c2)C(C)(C)C)c1[N+](=O)[O-]", 615),
    ("Cc1c(C(=O)NN(C(=O)c2ccc(F)cc2)C(C)(C)C)ccc2c1OCCO2", 1156),
]

Where do these numbers come from? They come from patent US9102648B1.
